MEASURED_TARGET: HCV NS5B RNA dependent RNA polymerase (NS5BCΔ21) (Hepatitis C virus genotype 1b)
PROTOCOL: HCV NS5B RdRp primer dependent elongation
Format: biochemical
REPORTED_CONDITIONS: read-out: % Inhibition (100 μM) of HCV NS5B RdRp activity
Label False if inhibition at 100 µM falls below 40%; label True in every other case.

> print(dat)
                                   molecule                           measured.target  class.label
1  CCc1cccc2c3c([nH]c12)C(CC)(CC(=O)NNC(=S)NCc1ccccc1)OCC3 (stereo not shown) [Compound 3f]  HCV NS5B RNA dependent RNA polymerase (NS5BCΔ21) (Hepatitis C virus genotype 1b)        False
2  CCCCNC(=S)NNC(=O)CC1(CC)OCCc2c1[nH]c1c(CC)cccc21 (stereo not shown) [Compound 3d]  HCV NS5B RNA dependent RNA polymerase (NS5BCΔ21) (Hepatitis C virus genotype 1b)         True
3  CCNC(=S)NNC(=O)CC1(CC)OCCc2c1[nH]c1c(CC)cccc21 (stereo not shown) [Compound 3b]  HCV NS5B RNA dependent RNA polymerase (NS5BCΔ21) (Hepatitis C virus genotype 1b)         True
4  CCc1cccc2c3c([nH]c12)C(CC)(CC(=O)NNC(=S)NC1CCCCC1)OCC3 (stereo not shown) [Compound 3h]  HCV NS5B RNA dependent RNA polymerase (NS5BCΔ21) (Hepatitis C virus genotype 1b)         True
5  CCCNC(=S)NNC(=O)CC1(CC)OCCc2c1[nH]c1c(CC)cccc21 (stereo not shown) [Compound 3c]  HCV NS5B RNA dependent RNA polymerase (NS5BCΔ21) (Hepatitis C virus genotype 1b)        False

Cited source for all entries: paper PMC6445542
